experiment: in vivo; details: male, Wistar, rat
Description: Half-life in male Wistar rat
experimentalReadout: half-life (h)
Answer with a number only, understood to be in h.

So, CCCn1c(Oc2ccc(F)c(F)c2)nc2nc(C3CCCC3)[nH]c2c1=O ? Its half-life was 2

---

target: Adenosine receptor A1 (Homo sapiens, UniProt P30542); assay: Displacement of [3H]CCPA from human adenosine […] receptor expressed in CHO cells measured by radioligand competition assay; format: cell-based
Sequence (P30542 whole entry): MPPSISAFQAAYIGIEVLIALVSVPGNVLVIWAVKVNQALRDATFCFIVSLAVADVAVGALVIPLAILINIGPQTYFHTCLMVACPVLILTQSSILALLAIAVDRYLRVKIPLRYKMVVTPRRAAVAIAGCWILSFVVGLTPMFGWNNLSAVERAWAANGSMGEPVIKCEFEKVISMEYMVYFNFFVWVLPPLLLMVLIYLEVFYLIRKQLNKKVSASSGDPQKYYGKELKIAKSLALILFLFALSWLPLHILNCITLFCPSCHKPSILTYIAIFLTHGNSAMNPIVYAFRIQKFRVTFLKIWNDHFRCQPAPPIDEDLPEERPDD
experimentalReadout: Ki (nM)
Give your result in nM as a bare value.

Ki of O=c1oc2c(O)cccc2cc1-c1ccc(Br)cc1 , assay on Adenosine receptor A1 (Homo sapiens, UniProt P30542), is 2400

---

assay: in vitro; details: human, Caco-2
Description: Apparent permeability in human Caco-2 cells
experimentalReadout: Papp

The compound listed as Nc1cc(-c2ccco2)c2oc(-c3ccco3)nc2c1 has a reported Papp of 77 ×10⁻⁶ cm/s

---

Biological target: Adenosine receptor A3 (Homo sapiens)
Sequence (P0DMS8 whole entry): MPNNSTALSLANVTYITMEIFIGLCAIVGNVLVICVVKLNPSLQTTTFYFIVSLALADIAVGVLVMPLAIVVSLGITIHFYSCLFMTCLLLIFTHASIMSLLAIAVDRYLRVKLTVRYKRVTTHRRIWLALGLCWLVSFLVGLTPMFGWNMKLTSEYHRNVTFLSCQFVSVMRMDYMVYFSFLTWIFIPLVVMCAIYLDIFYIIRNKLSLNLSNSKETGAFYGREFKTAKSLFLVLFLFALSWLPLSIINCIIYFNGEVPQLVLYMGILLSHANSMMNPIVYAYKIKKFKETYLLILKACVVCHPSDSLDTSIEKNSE
Test: biochemical
Description: Displacement of [3H]NECA from human adenosine A3 receptor expressed in HeLa cells measured by scintillation counting assay
experimentalReadout: Ki (nM)
Quick note: give the figure in nM, leave out the unit.

For this compound ( CCn1nnc([C@H]2O[C@@H](n3cnc4c(N)nc(NC(C)Cc5ccc(OC)cc5)nc43)[C@H](O)[C@@H]2O)n1 (stereo partly specified) ), measured Ki is 13

---

molecular target: Adenosine receptor A3 (Homo sapiens)
experimentalReadout: Ki (nM)
# output: bare number, implied unit nM

As a guide, the following entries are already answered.
[
  {
    "compound": "Cc1cccc(NC(=O)c2cc3ccccc3oc2=O)c1",
    "targetSystem": "Adenosine receptor A3 (Homo sapiens)",
    "unitLabel": "nM",
    "numericResult": 2400
  },
  {
    "compound": "COc1ccc2oc(=O)c(C(=O)Nc3cccc(O)c3)cc2c1",
    "targetSystem": "Adenosine receptor A3 (Homo sapiens)",
    "unitLabel": "nM",
    "numericResult": 22000
  },
  {
    "compound": "COc1ccc(OC)c(-c2cc(NC(C)=O)nc(-c3cc(OC)ccc3OC)n2)c1",
    "targetSystem": "Adenosine receptor A3 (Homo sapiens)",
    "unitLabel": "nM",
    "numericResult": 7
  },
  {
    "compound": "CC1=C(C)C2C(=O)NC(NC(=O)c3ccccc3)=NC2S1 (stereo not given)",
    "targetSystem": "Adenosine receptor A3 (Homo sapiens)",
    "unitLabel": "nM",
    "numericResult": 124
  }
]

// next item, Ki requested
Field Ki (entry COc1ccc(-c2cc(NC(C)=O)nc(-c3ccc(OC)c(OC)c3)n2)cc1OC ) reads 7

---

target: Adenosine receptor A2a (Homo sapiens); experiment: biochemical
Sequence (P29274 whole entry): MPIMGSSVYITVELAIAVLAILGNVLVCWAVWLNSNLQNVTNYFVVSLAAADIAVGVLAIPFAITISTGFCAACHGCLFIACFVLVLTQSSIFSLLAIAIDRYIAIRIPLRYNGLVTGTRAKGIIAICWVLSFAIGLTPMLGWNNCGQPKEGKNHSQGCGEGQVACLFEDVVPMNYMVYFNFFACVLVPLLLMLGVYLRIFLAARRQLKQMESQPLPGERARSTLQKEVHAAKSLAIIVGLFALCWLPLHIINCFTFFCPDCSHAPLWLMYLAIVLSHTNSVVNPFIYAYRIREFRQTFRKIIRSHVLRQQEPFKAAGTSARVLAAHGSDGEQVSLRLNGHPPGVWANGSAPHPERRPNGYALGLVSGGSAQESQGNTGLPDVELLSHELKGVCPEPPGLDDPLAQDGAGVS
Description: Displacement of [3H]ZM-241385 from human adenosine A2A receptor expressed in HEK293 cells incubated for 60 mins and measured by scintillation counting assay
experimentalReadout: Ki
Note to self: number, then unit, no commentary.

Entry under test: COCCOc1ccc(N2CCN(CCn3c(=O)n(C)c4c3nc(N)n3nc(-c5nccs5)nc43)CC2)c(F)c1 . Its Ki was 0.4 nM
